Test: collision cross section of modified peptide (TIMS, N2, iRT-aligned); higher = larger / more extended gas-phase ion
Conditions: charge state: 3; modification: Acetyl (K)
propertyName: collision cross section (Å²)

>>> print(df.to_string())
                             sequencerecord             propertyname  valueunits  numericreadout
0     TLDEILQEKK [_TLDEILQEK(Acetyl (K))K_]  collision cross section          Å²          448.44
1  ANEKTESSSAQQVAVSR [_ANEK(Acetyl (K))TESSSAQQVAVSR_]  collision cross section          Å²           527.9
2  SLEEEGAAHSGKR [_SLEEEGAAHSGK(Acetyl (K))R_]  collision cross section          Å²          476.34
3  GGPGSTLSFVGKR [_GGPGSTLSFVGK(Acetyl (K))R_]  collision cross section          Å²          429.09
4  VFIGNLNTLVVKK [_VFIGNLNTLVVK(Acetyl (K))K_]  collision cross section          Å²             485
5  VNVEAPDVNLEGLGGKLK [_VNVEAPDVNLEGLGGK(Acetyl (K))LK_]  collision cross section          Å²          542.09
6  ITLSKHQNVQLPR [_ITLSK(Acetyl (K))HQNVQLPR_]  collision cross section          Å²          526.67
7  VPTTEKPTVTVNFR [_VPTTEK(Acetyl (K))PTVTVNFR_]  collision cross section          Å²          507.52
8  DVNAAIAAIKTK [_DVNAAIAAIK(Acetyl (K))TK_]  collision cross section          Å²          457.21
9  DAEAAEATAEGALKAEK [_DAEAAEATAEGALK(Acetyl (K))AEK_]  collision cross section          Å²          539.19

----------
Experiment: collision cross section of modified peptide (TIMS, N2, iRT-aligned); higher = larger / more extended gas-phase ion
Conditions: charge state: 2; modification: Malonyl
The label depends only on collision cross section: satisfied if it is at least 400 Å², not satisfied if it is smaller.

>>> df
                              sequencerecord  discretelabel
 0  VFIGNLNTLVVKK [_VFIGNLNTLVVK(Malonyl)K_]      satisfied
 1        ILDLKTGTVK [_ILDLK(Malonyl)TGTVK_]  not satisfied
 2        TLDEILQEKK [_TLDEILQEK(Malonyl)K_]  not satisfied
 3  SPSDSGYSYETIGKTTK [_SPSDSGYSYETIGK(Malonyl)TTK_]      satisfied
 4  VPTTEKPTVTVNFR [_VPTTEK(Malonyl)PTVTVNFR_]      satisfied
 5        ISALQGKLSK [_ISALQGK(Malonyl)LSK_]  not satisfied
 6  STGLELETPSLVPVKK [_STGLELETPSLVPVK(Malonyl)K_]      satisfied
 7  SLEEEGAAHSGKR [_SLEEEGAAHSGK(Malonyl)R_]      satisfied
 8  ASDTSSETVFGKR [_ASDTSSETVFGK(Malonyl)R_]  not satisfied
 9          DHLSDKESK [_DHLSDK(Malonyl)ESK_]  not satisfied
10        IGNSYFKEEK [_IGNSYFK(Malonyl)EEK_]  not satisfied

Hello, the source for this data is the supplement of paper PMC10598134, in case you need it.
